Record form. Attribute: Mean, FL2-H. Fill in for each entry.
assayed target: GPC3 on the surface of hepatic cancer cell lines (SK-Hep1-GPC3 transfectant, HepG2, Huh7, Hep3B, SNU398) (human) (UniProt P51654)
experiment summary: FACS, HepG2 cells, 1 ug antibody; lower left panel (Human naive library)
Write no unit; give the number alone.

Return value of Mean, FL2-H for input clone GN414 (scFv, V domains shown) VH: QVQLVQSGAEVKKPGASVKVSCKASGYTFSTYGITWVRQAPGQGLEWMGRITPNNGVTDYAQKFQGRVTMTRDTSISTAYMELSSLRSDDSAVYYCAREIGSSSWKLLDPWGQGTMVTVSS VL: QAVLTQPSSVSVSPGQTASITCTGNSNNVGYEGAAWVQQYQGHPPKLLSDRNHNRPSGISERFSASRSGNTASLTITGLQSEDEADYYCSAWDSSLSEWVSGGGTKLTVLG , no commentary. 6.9

Consider the binder clone GX184 (scFv, V domains shown) VH: QLQLQESGPGLVKPSETLSLTCAVSGGSISSSNNYWGWIRQPPGKGLEWIGSIFYSGSTYYNPSLKSRVTISVDTSKNQFSLKLSSVTAADTAVYYCARLPTGTPGFYFDYWGQGTLVTVSS VL: SYELTQPPSVSKGLRQTATLTCTGNSNNVGNQGAAWLQQHQGHPPKLLSYRNNNRPSGISERFSASRSGNTASLTITGLQPEDEADYYCSAWDSSLSAWVFGGGTKLTVLG . State its measured Mean, FL2-H. 5.39

Specify Mean, FL2-H for clone GN328 (scFv, V domains shown) VH: EVQLVESGGGLVQPGGSLRVSCAASGFTFSTAWMDWVRQAPGKGLEWVANINPDGSEKHYVDSVKGRFTVSRDNAKNSVYLHMNNLRAEDTAVYYCSKALDYWGQGTTVTVSS VL: DIQMTQSPSTLSASVGDRVTITCRASQNINTWLAWYQQKPGKAPEVLIYEASSLESGVPPRFSGSGSGTEFTLTISSLQPDDSATYYCQQYNTYSPTFGQGTKLEIKR and stop. 4.24

Report measured Mean, FL2-H; entry is clone GX247 (scFv, V domains shown) VH: QVQLVQSGAEVKKPGASVKVSCKASGYTFTSYYMHWVRQAPGQGLEWMGIINPSGGSTSYAQKFQGRVTMTRDTSTSTVYMELSSLRSEDTAVYYCARTRKGSGYSYGYGMDVWGQGTTVTVSS VL: SYELTQPPSVSVSPGQTASITCSGDKLGNKYVSWYQQKPGQSPVLVIYQDNKRPSGIPERFSGSNSGNTATLTISGTQAMDEAGYYCQTWDSSVVFGGGTKLTVLG 5.53
